# test protocol: E. coli acrAB mutant growth effects, primary screen, E. coli filamentation inducers, strain DRC39, OD650, 48 h (AID 1179);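 also: screen aims at cell division blockers that make cells filament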
# condition: E. coli DRC39 delta-acrAB growth, higher = more signal, called active from +8 up or from −8 down
Outcome label depends on z-score relative to 2: at/above gives true (1), below gives false (0).

Use these answered entries as a reference point.
compound smiles	category label
CCOC(=O)C[C@H]1[C@H](OC(=O)c2cc3ccccc3oc2=O)[C@@H](NC(=O)c2ccccc2)c2cc(OCCCO)ccc2N1C(=O)Cc1ccc(OC)cc1	false (0)
NCCCCCNC(=O)[C@H]1C[C@H]2C(=O)NCC(=O)N2[C@H]1c1ccc(O)cc1	false (0)
[N-]=[N+]=NCc1ccccc1C[C@@]1(C(=O)NCc2ccccc2)N=C(c2ccc(OCCCO)cc2)O[C@@H]1c1ccccc1	false (0)
C[N+](C)(C)CCCCNC(=O)[C@@H]1C[C@@H]2C(=O)NCC(=O)N2[C@@H]1c1cccc(OCCO)c1	false (0)
CC(C)C(=C=CC[C@@H](O)c1ccc(CO)o1)CCO	false (0)
O=C(N1CCCCC1)[C@@]1(Cc2ccccc2)N=C(c2ccc(OCCCO)cc2)O[C@H]1c1ccccc1	false (0)
COc1ccc([Si](C)(C)[C@H]2[C@H](CC(=O)N(CCO)Cc3ccccc3)O[C@@]3(C(=O)N(Cc4cccc(N5C(=O)COc6ccccc65)c4)c4ccccc43)[C@@H]2C)cc1	true (1)

Has CCCCC(=C=CC[C@@H](O)c1ccc(OCCO)cc1)C[C@@H](O)c1cc(Cl)cc(Cl)c1O a recorded z-score greater than or equal to 2?
true (1)

###

# test protocol: A2780 ovarian cancer cell cytotoxicity, dose response, cytotoxicity control, plate reader, dry powder samples (AID 743046);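 also: 0% = neutral control wells and -100% = cytotoxic reference compound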
# condition: series mostly up to 35 µM
Measured potencies and affinities stand elsewhere. Calls of active or inactive are those of the source. How the calls were made is not given here.

compound smiles	activity change, negative = cytotoxicity
CC(C)CC#Cc1ccc2c(c1)O[C@H](CN(C)Cc1ccc(C(=O)O)cc1)[C@@H](C)CN([C@H](C)CO)S2(=O)=O	inactive
C[C@@H]1CCCCO[C@H](CN(C)C(=O)Nc2cccc3ccccc23)[C@H](C)CN([C@@H](C)CO)C(=O)c2cc(NS(=O)(=O)c3ccc(Cl)cc3)ccc2O1	inactive
C[C@H](CO)N1C[C@H](C)[C@@H](CN(C)S(=O)(=O)c2ccc(Cl)cc2)OCCCC[C@H](C)Oc2ccc(NS(=O)(=O)c3ccc(Cl)cc3)cc2C1=O	inactive

###

# system name: Concanavalin-A (Canavalia ensiformis) (UniProt P02866)
# Sequence (P02866 whole entry, looked up): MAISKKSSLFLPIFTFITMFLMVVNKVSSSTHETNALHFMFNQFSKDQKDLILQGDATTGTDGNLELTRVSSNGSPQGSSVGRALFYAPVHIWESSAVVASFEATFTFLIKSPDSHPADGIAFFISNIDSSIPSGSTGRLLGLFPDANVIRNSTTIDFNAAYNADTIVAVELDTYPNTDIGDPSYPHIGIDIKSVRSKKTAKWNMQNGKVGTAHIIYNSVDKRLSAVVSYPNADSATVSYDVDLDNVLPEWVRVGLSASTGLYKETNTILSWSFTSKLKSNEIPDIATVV
# test protocol: ConA small-molecule binders, primary screen, artefact control for SMM control protein annotation, biochemical, small-molecule microarray, Alexa647 label, 635 nm (AID 1127);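 also: z combines 667 nm emission intensity with signal-to-noise across three replicate slides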
# condition: ConA-A647 binding fluorescence, higher = more signal
recorded metric: composite z-score
One number for each entry.

Solved entries (count: 6):
molecule	composite z-score
CCN(CC)c1ccc(N2CC=CC34O[C@@H]5C=CCOC(=O)[C@@H]5[C@H]3C(=O)N(C(C)CO)[C@@H]4C2=O)cc1 (stereo partly drawn)	-1.51
CC(C)CCC[C@@H](C)[C@H]1CC[C@@]2(C)C3=C(CC[C@]12C)[C@@]1(C)CC[C@H](OC(=O)CCl)C(C)(C)C1CC3 (stereo partly drawn)	0.47
[N-]=[N+]=Nc1ccccc1[C@H]1OC(c2ccc(OCCCO)cc2)=N[C@@]1(Cc1ccccc1)C(N)=O	1.16
Cc1ccc(N2C(=O)c3ccccc3[C@](C)(C(=O)NC3CC3)[C@@H]2c2ccc(CO)cc2)nc1	-0.816
C=C(COC)C(=O)CC[C@H](OC(=O)c1cccnc1)c1cccc(OCCO)c1	-0.0509
O=C1c2ccccc2[C@@]2(Cc3ccccc3N(CC(F)(F)F)C2=O)[C@H](c2ccc(CO)cc2)N1Cc1ccccc1C(F)(F)F	-1.83

Could I get composite z-score for every one of these entries?
1. NCCCCCNC(=O)[C@H]1C[C@H]2C(=O)NCC(=O)N2[C@H]1c1ccc(O)cc1
2. Cc1ccc(S[C@]2(C(=O)NCCN3CCOCC3)CC(=O)N(Cc3cc(C(F)(F)F)cc(C(F)(F)F)c3)[C@@H]2c2ccc(CO)cc2)cc1

[1.22, -0.664]
